# assay.method.text: clinical
# protocol.conditions: male, human, in vivo, 100 mg, t1/2 λz
readout.label: half-life (h)
I only need the number, in h, no unit after it.

Request: # return recorded half-life for entry Nc1nc(=O)n(C2C=CC(CO)O2)cc1F (stereo not shown)
Response: 9.25

* * *

# assay.method.text: clinical
# protocol.conditions: male, human, in vivo, po, 50 mg, AUC
readout.label: AUC (µM·h)
I only need the number, in µM·h, no unit after it.

Request: # return recorded AUC for entry Nc1nc(=O)n(C2C=CC(CO)O2)cc1F (stereo not shown)
Response: 25.9

* * *

# assay.method.text: clinical
# protocol.conditions: male, human, in vivo, po, 10 mg, Cmax
readout.label: Cmax (nM)
I only need the number, in nM, no unit after it.

Request: # return recorded Cmax for entry Nc1nc(=O)n(C2C=CC(CO)O2)cc1F (stereo not shown)
Response: 870

Data provenance: patent US20050244490A1
